Target: PSMA-expressing C4-2 cells (Homo sapiens)
Construct: PSMA-expressing C4-2 cells (ATCC, Cat. No. CRL-3314) were cultured in RPMI-1640; host or cells: C4-2 cells
Sequence (Q04609 whole entry): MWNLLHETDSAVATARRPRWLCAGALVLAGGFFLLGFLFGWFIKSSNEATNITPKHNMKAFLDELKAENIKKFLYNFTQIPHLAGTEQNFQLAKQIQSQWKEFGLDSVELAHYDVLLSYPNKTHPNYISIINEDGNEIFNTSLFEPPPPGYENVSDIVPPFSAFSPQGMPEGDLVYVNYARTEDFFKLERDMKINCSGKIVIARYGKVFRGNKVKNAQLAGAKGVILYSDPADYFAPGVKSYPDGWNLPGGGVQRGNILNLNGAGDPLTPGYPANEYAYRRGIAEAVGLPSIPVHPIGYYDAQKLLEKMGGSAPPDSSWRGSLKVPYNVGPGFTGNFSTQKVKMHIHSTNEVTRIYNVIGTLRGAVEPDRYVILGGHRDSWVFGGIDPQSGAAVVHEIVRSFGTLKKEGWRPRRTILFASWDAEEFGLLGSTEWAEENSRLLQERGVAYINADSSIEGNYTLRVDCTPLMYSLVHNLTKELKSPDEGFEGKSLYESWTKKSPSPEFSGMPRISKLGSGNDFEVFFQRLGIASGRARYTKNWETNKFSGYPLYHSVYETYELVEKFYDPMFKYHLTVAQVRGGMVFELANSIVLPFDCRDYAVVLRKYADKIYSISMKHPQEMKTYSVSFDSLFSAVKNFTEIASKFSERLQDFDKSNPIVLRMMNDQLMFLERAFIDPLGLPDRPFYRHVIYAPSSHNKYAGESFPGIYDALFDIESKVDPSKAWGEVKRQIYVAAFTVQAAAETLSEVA
Assay: FACS binding assay (competition with 50 nM PSM-0183)
Settings: pIC50 category of FACS binding, C4-2 cells; read-out: pIC50 [C4-2] CAT (converted)
Method: In order to determine binding of compounds according to the present invention to PSMA-expressing cells, a FACS binding assay was established. PSMA-expressing C4-2 cells (ATCC, Cat. No. CRL-3314) were cultured in RPMI-1640 (Pan Biotech, Cat. No. P04-18050) including 10% fetal calf serum (Biochrom) and 100 U/ml penicillin and 100 μg/mL streptomycin (Sigma, Cat. No. P0781). […]
Numbered stars: 1 amine (or outer) side, 2 acyl side, 3 side chain; on linkers, the order of the positions; unused ones are H or OH. Bridge positions count the residues as written; N and C are the ends. Square brackets hold non-standard residues; d marks the D form. Peptide text beside a SMILES is read from it. * marks the point of attachment. X7 = O=C(O)CN1CCN(CC(=O)O)CCN(CC(=O)NC2CCN(CC(=O)*)CC2)CCN(CC(=O)O)CC1; DOTA = O=C(O)CN1CCN(CC(=O)O)CCN(CC(=O)*)CCN(CC(=O)O)CC1; Phe(4-Cl) = N[C@@H](Cc1ccc(Cl)cc1)C(=O)O; X1 = O=C(CC1CCN([*:1])CC1)[*:2]; Tle = CC(C)(C)[C@H](N)C(=O)O; Propanoyl(3-OH) = O=C(CCO)*; Aib = CC(C)(N)C(=O)O; CO = O=C([*:1])[*:2]; NHBu = CCCCN*
Value Kind: IC50

1) C[C@@H](O)[C@H](NC(=O)[C@@H](NC(=O)[C@@H]1CSSC[C@H](NC(=O)[C@H](Cc2ccccc2)NC(=O)C(C)(C)NC(=O)CCO)C(=O)N[C@@H](CCCCN)C(=O)N[C@@H](CCCNC(=N)N)C(=O)NC(C)(C)C(=O)N[C@@H](CC(N)=O)C(=O)N1)C(C)(C)C)C(N)=O [PSM-0530] ({Propanoyl(3-OH)}-[Aib]FCKR[Aib]NC[Tle]T-NH2; disulfide 3-8): < 200 nM

Jot down IC50 (PSMA-expressing C4-2 cells (Homo sapiens)) of CCCCNC(=O)N[C@H](C(=O)NC(C)(C)C(=O)N[C@@H](Cc1ccc(Cl)cc1)C(=O)N[C@H]1CSSC[C@@H](C(=O)N[C@H](C(=O)N[C@H](C(=O)N2CCC(CC(=O)N[C@H](CCCCNC(=O)CN3CCN(CC(=O)O)CCN(CC(=O)O)CCN(CC(=O)O)CC3)C(N)=O)CC2)[C@@H](C)O)C(C)(C)C)NC(=O)[C@H](CC(N)=O)NC(=O)C(C)(C)NC(=O)[C@H](CCCNC(=N)N)NC(=O)[C@H](CCCCN)NC1=O)[C@@H](C)O [PSM-0371] ({NHBu-CO}-T[Aib][Phe(4-Cl)]CKR[Aib]NC[Tle]T[X1][dK](DOTA)-NH2; disulfide 4-9) .
< 200 nM

Jot down IC50 (PSMA-expressing C4-2 cells (Homo sapiens)) of CC(=O)N[C@H](C(=O)NC(C)(C)C(=O)N[C@@H](Cc1ccccc1)C(=O)N[C@H]1CSSC[C@@H](C(=O)N[C@H](C(=O)N[C@H](C(N)=O)[C@@H](C)O)C(C)(C)C)NC(=O)[C@H](CC(N)=O)NC(=O)[C@H](CCCCNC(=O)CN2CCC(NC(=O)CN3CCN(CC(=O)O)CCN(CC(=O)O)CCN(CC(=O)O)CC3)CC2)NC(=O)[C@H](CCCNC(=N)N)NC(=O)[C@H](CCCCN)NC1=O)[C@@H](C)O [PSM-0464] (Ac-T[Aib]FCKRK(X7)NC[Tle]T-NH2; disulfide 4-9) .
< 200 nM
